system: CW1; experiment: Drug dose-response curves, cell proliferation, CW1; type: cell-based; conditions: Homo sapiens; CW1 cell line; 72 hours of drug exposure; read-out: ROCK1 inhibition, IC50 values
Endpoint: IC50 (µM)
Answers are plain numbers, in µM.

Prompt: # return recorded IC50 for input O=S(=O)(c1cccc2cnccc12)N1CCCNCC1
Response: 66

---

test system: CW1; experiment: Drug dose-response curves, cell proliferation, CW1; format: cell-based; conditions: Homo sapiens, 72 h, read-out: ROCK1 inhibition, IC50 values
Endpoint: IC50 (µM)
Answers are plain numbers, in µM.

Prompt: Please give the documented IC50 of CC(N)C1CCC(C(=O)Nc2ccncc2)CC1 (stereo not shown)
Response: 6.4
